# TARGET_UNDER_TEST: Human Fc (human)
# TEST_METHOD_NOTES: ELISA; negative control
MEASURED_ATTRIBUTE: optical density (OD)
Express it in OD; write the number only.

Incoming: Give its optical density value. Item: 365_D09 (antibody, V domains shown) VH: EVQLLESGGGLVQPGGSLRLSCAASGFTFSSYGMHWVRQAPGKGLEWVSGINYNSGYTSYADSVKGRFTISRDNSKNTLYLQMNSLRAEDTAVYYCARSANWHDTALDYWGQGTLVTVSS VL: DIQMTQSPSSLSASVGDRVTITCRASQSILSYLNWYQQKPGKAPKLLIYAATSRASGVPSRFSGSGSGTDFTLTISSLQPEDFATYYCQQSDESPLTFGGGTKVEIK
Outgoing: 0.302

Incoming: Give its optical density value. Item: 371_E12 (antibody, V domains shown) VH: EVQLLESGGGLVQPGGSLRLSCAASGFTFDSYSMNWVRQAPGKGLEWVSGINYNSGYKSYADSVKGRFTISRDNSKNTLYLQMNSLRAEDTAVYYCARGATWHDTHLDYWGQGTLVTVSS VL: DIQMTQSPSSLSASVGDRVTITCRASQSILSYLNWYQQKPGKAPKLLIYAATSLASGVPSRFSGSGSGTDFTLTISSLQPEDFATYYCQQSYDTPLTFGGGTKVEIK
Outgoing: 0.398

Incoming: Give its optical density value. Item: 369_F09 (antibody, V domains shown) VH: EVQLLESGGGLVQPGGSLRLSCAASGFTFSSYGMHWVRQAPGKGLEWVAGINYNGGYTSYADSVKGRFTISRDNSKNTLYLQMNSLRAEDTAVYYCARGATWHDTHLDYWGQGTLVTVSS VL: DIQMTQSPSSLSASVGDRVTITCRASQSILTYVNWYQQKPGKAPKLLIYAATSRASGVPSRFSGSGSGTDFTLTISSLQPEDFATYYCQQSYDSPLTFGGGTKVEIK
Outgoing: 0.5

Incoming: Give its optical density value. Item: 365_E01 (antibody, V domains shown) VH: EVQLLESGGGLVQPGGSLRLSCAASGFTFSDYSMNWVRQAPGKGLEWVSGINYNSGYKGYADSVKGRFTISRDNSKNTLYLQMNSLRAEDTAVYYCARSANWHDTALDYWGQGTLVTVSS VL: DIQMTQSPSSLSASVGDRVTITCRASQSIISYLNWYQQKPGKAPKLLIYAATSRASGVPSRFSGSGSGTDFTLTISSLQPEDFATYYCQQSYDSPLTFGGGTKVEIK
Outgoing: 0.363

Incoming: Give its optical density value. Item: 365_F01 (antibody, V domains shown) VH: EVQLLESGGGLVQPGGSLRLSCAASGFTFDSYSMNWVRQAPGKGLEWVSGINYNSGYKGYADSVKGRFTISRDNSKNTLYLQMNSLRAEDTAVYYCARSANWHDTHLDYWGQGTLVTVSS VL: DIQMTQSPSSLSASVGDRVTITCRASQSIVSYLNWYQQKPGKAPKLVIYAATSLASGVPSRFSGSGSGTDFTLTISSLQPEDFATYYCQQSYELPLTFGGGTKVEIK
Outgoing: 0.341
